Origin of the recorded values: ChEMBL document CHEMBL1130503

Tested on: renal dehydropeptidase I (DHP-I)
Experiment: Biological half life in human plasma (stability to human renal dehydropeptidase I,DHP-I).
Assay type: ADME, cell-free
Measured Endpoint: half-life

Compound: C[C@@H](O)[C@H]1C(=O)N2C(C(=O)[O-])=C3CCSCC3[C@H]12.[K+] (stereo in doubt; 15a)
Recorded Measurement: 12 min
